# Test system: Staphylococcus aureus MW2 (mecA+)
# procedure-text: normalized DsRed fluorescence (growth of mecA+ strain) (fraction of control range); higher = more growth of mecA+ strain
# run-conditions: compound concentration: 150 uM; cefoxitin: subinhibitory; fluorescent label: DsRed
Record form. Attribute: normalized DsRed fluorescence. Fill in for each entry.
Give only the figure.

Look up normalized DsRed fluorescence with Staphylococcus aureus MW2 (mecA+) for this compound: `Cc1onc(-c2ccccc2)c1-c1ccc(S(N)(=O)=O)cc1`
0.573

And N[C@H]1C(O)O[C@H](CO)[C@@H](O)[C@@H]1O (some centres undefined) ?
0.564

Would you kindly repeat that for `CSCC[C@H](NC(=O)[C@H](Cc1c[nH]c2ccccc12)NC(=O)CCNC(=O)OC(C)(C)C)C(=O)N[C@@H](CC(=O)O)C(=O)N[C@@H](Cc1ccccc1)C(N)=O` ?
0.68

How about `CC(C)CN(C[C@@H](O)[C@H](Cc1ccccc1)NC(=O)O[C@H]1CCOC1)S(=O)(=O)c1ccc(N)cc1` ?
0.506

Can you check CC(C)(C)NCC(O)COc1cccc2c1CC(O)C(O)C2 (centres undefined) next?
0.671

Follow-up item: `N[C@@H](CC(=O)N1CCn2c(nnc2C(F)(F)F)C1)Cc1cc(F)c(F)cc1F`
0.577

Param item: `Oc1ccc(OCc2ccccc2)cc1`
0.522

Input Cc1cc2nc3c(=O)[nH]c(=O)nc-3n(CC(O)C(O)C(O)COP(=O)(O)O)c2cc1C (centres undefined)
0.535

Then this compound: CN(CCOc1ccc(CC2SC(=O)NC2=O)cc1)c1ccccn1 (centres undefined)
0.876
